Tested on: E. coli Ecoli233 (KPC3)
Assay: Synergistic broth micro-dilution MIC
Format: cell-based, Escherichia coli
Conditions: BLI at 4 μg/mL
measured-attribute: MIC of Imipenem in combination with BLI (µg/mL)
Record the value in µg/mL, omitting the unit from your answer.

mol-smiles	MIC of Imipenem in combination with BLI [µg/mL]
C[n+]1ccn(C[C@@]2(C)[C@H](C(=O)[O-])N3C(=O)C[C@H]3S2(=O)=O)c1	4
C[n+]1ccn(C[C@@]2(C)[C@H](C(=O)[O-])N3C(=O)C[C@H]3S2(=O)=O)n1	4
C[C@]1(Cn2ccnc2)[C@H](C(=O)O)N2C(=O)C[C@H]2S1(=O)=O	16
Cc1cn(C[C@@]2(C)[C@H](C(=O)[O-])N3C(=O)C[C@H]3S2(=O)=O)c[n+]1C	8

Consider the compound shown here: C[C@]1(Cn2ccnn2)[C@H](C(=O)O)N2C(=O)C[C@H]2S1(=O)=O What is its recorded MIC of Imipenem in combination with BLI?
8

###

Tested on: KPC-2 producing K. pneumoniae (ATCC BAA-1705)
Test: Synergistic broth micro-dilution MIC (checkerboard)
Format: cell-based, Klebsiella pneumoniae
Conditions: BLI at 2 μg/mL; ATCC BAA-1705
compounds and their reported MIC of Cefepime in combination with BLI
Please give a number only; it is taken to be in µg/mL.

Lookup: MIC of Cefepime in combination with BLI / KPC-2 producing K. pneumoniae (ATCC BAA-1705) / O=C(O)[C@H]1/C(=C/CO)O[C@@H]2CC(=O)N21
64

Form field: MIC of Cefepime in combination with BLI recorded for C[C@]1(Cn2ccnn2)[C@H](C(=O)O)N2C(=O)C[C@H]2S1(=O)=O with KPC-2 producing K. pneumoniae (ATCC BAA-1705) (enter value)
64

// fetch KPC-2 producing K. pneumoniae (ATCC BAA-1705) MIC of Cefepime in combination with BLI for C[n+]1ccn(C[C@@]2(C)[C@H](C(=O)[O-])N3C(=O)C[C@H]3S2(=O)=O)n1
64

###

Tested on: KPC-3 expressing E. coli (J53 R6206)
Assay: Synergistic broth micro-dilution MIC (checkerboard)
Format: cell-based, Escherichia coli
Conditions: BLI at 4 μg/mL
measured-attribute: MIC of Cefotaxime in combination with BLI (mg/L)
Output spec: scalar in mg/L, unitless text.

Would you please look over these solved cases?
compound	reading-unit	observed-measurement
C[C@]1(Cn2ccnn2)[C@H](C(=O)O)N2C(=O)C[C@H]2S1(=O)=O [Tazobactam]	mg/L	8
CC1(C)[C@H](C(=O)O)N2C(=O)C[C@H]2S1(=O)=O [Sulbactam]	mg/L	16

Entry O=C(O)[C@H]1/C(=C/CO)O[C@@H]2CC(=O)N21 [Clavulanic acid] , system KPC-3 expressing E. coli (J53 R6206): what MIC of Cefotaxime in combination with BLI was measured?
1

###

Biological target: crude KPC-2 enzyme extract (Klebsiella pneumoniae)
Construct: enzyme extracts from KPC-2 producing and KPC-3 expressing bacterial gram negative strains were used; endogenous in cells
Test: β-Lactamase inhibitory assay with CENTA substrate
Reported IC50 by item:
Answer format: numeric, µM implied, no suffix.

Here is how some molecules turned out for IC50.
molecule	IC50, µM
O=C(O)[C@H]1/C(=C/CO)O[C@@H]2CC(=O)N21 [Clavulanic acid]	330
C[n+]1ccn(C[C@@]2(C)[C@H](C(=O)[O-])N3C(=O)C[C@H]3S2(=O)=O)n1 [Compound-1]	190
CC1(C)[C@H](C(=O)O)N2C(=O)C[C@H]2S1(=O)=O [Sulbactam]	1400

Suppose we examine the molecule C[C@]1(Cn2ccnn2)[C@H](C(=O)O)N2C(=O)C[C@H]2S1(=O)=O [Tazobactam] ; what IC50 value has been reported?
980

Ref: patent US10201532B2
